experiment: Stability in Sprague-Dawley rat plasma assessed as parent compound remaining measured after 30 mins; assay type: ADME, cell-free; settings: read-out: Stability
Endpoint name: remaining at 0.5 h
Please answer in the form of a number followed by its unit of measurement.

# input Using known records, supply remaining at 0.5 h for "COC(=O)c1cncn1[C@H](C)c1ccc([18F])cc1"
# output 8%

---

biological target: Kappa-type opioid receptor (Homo sapiens)
Sequence (P41145 whole entry): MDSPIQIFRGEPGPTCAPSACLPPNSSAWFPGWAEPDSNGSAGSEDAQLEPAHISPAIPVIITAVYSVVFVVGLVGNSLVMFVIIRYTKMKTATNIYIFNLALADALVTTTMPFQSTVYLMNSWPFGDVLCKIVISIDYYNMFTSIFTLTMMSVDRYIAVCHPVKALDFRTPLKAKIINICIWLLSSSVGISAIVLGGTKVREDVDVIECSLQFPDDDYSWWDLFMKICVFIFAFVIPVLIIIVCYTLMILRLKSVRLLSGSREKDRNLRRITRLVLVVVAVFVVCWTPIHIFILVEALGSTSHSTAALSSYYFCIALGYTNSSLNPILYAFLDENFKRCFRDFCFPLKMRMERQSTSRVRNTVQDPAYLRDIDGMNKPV
Endpoint name: Kd (nM)
All answers are understood in nM, so give the number only.

# input Using known records, supply Kd for "N[11C](=O)c1ccc(Oc2ccc(CN3CCC[C@H]3c3cccnc3)cc2)c(Cl)c1"
# output 0.028

---

assay: Stability in Sprague-Dawley rat plasma assessed as parent compound remaining measured after 10 mins; type: ADME, cell-free; conditions: read-out: Stability
Endpoint name: remaining at 10 min (%)
All answers are understood in %, so give the number only.

# input Using known records, supply remaining at 10 min for "COC(=O)c1cncn1[C@H](C)c1ccc([18F])cc1"
# output 13
